test system: MS2 coat protein; assay: apparent KD of MS2 coat protein; higher = weaker reporter binding; details: Eterna round: R107; input ligand: arginine 13.2 mM
Here the recorded apparent KD of MS2 coat protein is given for each entry.
Give just the number in nM; leave the unit off.

Sample answers from the record:
| chain | quantity measured | quantitative result |
| --- | --- | --- |
| GGGCCCGGGCGCGAGCCCGGGCCCAUUGAUACCAGUGAAAAUAUACGCCCUUGGCAGCGAAUCCUAACAUGAGGAUCACCCAUGU [5.A] | apparent KD of MS2 coat protein | 37.7 |
| AGUUAAAUAUGUUAAUAACUAUUUACUGAAGGAGCGUGUUUUGACACAGGUAGGUCGCAGUGACAUGAGGAUCACCCAUGUCGUA [#08 Same State - Arginine A] | apparent KD of MS2 coat protein | 20.3 |
| CAUGGGUGGGUGCUGCCACCCAUUGGUGAUACCAGCAUCGAAAGAUGCCCUUGGCAGCACCAACAUGAGGAUCACCCAUGUAAUA [(M)'-(T)'-(M)''-(T1)-(T2)-(M1)-(M2)_Design4] | apparent KD of MS2 coat protein | 58.6 |
| ACAUGAGGAUCACCCAUGUACAUGAGGGAAGGAGCGGUACAUGAGCCAGGUAGGUCGCCCAUGAGCAUCAGGCAUGUACAUCAGC [kokmmullin] | apparent KD of MS2 coat protein | 47.6 |
| UGUAUGUGAUCUGAUACCAGCGAUGAUAACCUGAGGAUCACCCUGGUAAGGCGAAAGCCUCGCCCUUGGCAGCAGAUCGCAUACU | apparent KD of MS2 coat protein | 407 |

Continue with the next sequence.
Give reported apparent KD of MS2 coat protein value for GCACCAGGUACGGAUACCAGCUAUAGGCACAGAGGAGGACAUGAGGAUCACCCAUGUGAUGGCCCUUGGCAGCUGUACCUGGUGC [EThB NP+V+V2 #3]
8.89

====

test system: MS2 coat protein; test: apparent KD of MS2 coat protein; higher = weaker reporter binding; details: Eterna round: R107; input ligand: theophylline 2 mM
quantity measured: apparent KD of MS2 coat protein

| chain | apparent KD of MS2 coat protein |
| --- | --- |
| CGAAAGCACAUGGGUUGCUUUCGACUGGAAGGAGCGAGCGAAAGCUCAGGUAGGUCGCCAGAAACAUGAGGAUCACCCAUGUAAU [(A)''-(M)'-(A)'(Arg1)-(Arg2)-(M1)-(M2)_Design10] | 21.3 nM |
| UCGUUUGAGGCGGCCGCCACUGGUCUCAUGGUCAACAUGAGGAUCACCCAUGUAUCUUUGCUAAGCAGGACCGGGCCUCGAGCGA [#19 Exclusion Tryptophan B] | 87.5 nM |
| AUACAUGAGGAUCACCCAUGUCAUACAGAAGGAGCGUCAUAUUAGACAGGUAGGUCGCUGUAAUUUUUAUUAUUCUUUAUGUAUU [JR_Nu_ExcArginiA_Sub026] | 26.9 nM |
| GGCACCGGGCGAAGGAGCGUGAAGACAUGAGGAUCACCCAUGUAGAGGCCCGGACAGGGUUCGCAGGUAGGUCGCGCGCGGUGCC [#1 Same State - Arginine B Attempt #8 (HarryS)] | 16.8 nM |

Here's the next entry for you.
Name the recorded apparent KD of MS2 coat protein of the sequence listed here: GUCCUCAUGACGGCCGCCACUACACAUGAGGAUCACCCAUGUAAUGAUCCCUUAAAUGAUAAUAGUAGGACCGGGUCACUGUAAG [Same State Typptophan B GF12]
743 nM

====

apparent KD of K4 kissing-loop reporter values by entry
system: K4 kissing-loop RNA reporter; experiment: apparent KD of K4 kissing-loop reporter; higher = weaker reporter binding; details: Eterna round: R107; input ligand: none;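 further: bound reporter read as fluorescence of individual clusters on recovered sequencing chips by microscopy, with normalized cluster intensities fitted with a binding model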
# unit: µM | format: bare number

Record excerpt, results attached:
| chain | apparent KD of K4 kissing-loop reporter (µM) |
| --- | --- |
| AAAAUAAACCAGUGAUGUUGGUAUCCGGAUACCAGCGAUAAUCAUCGCCCUUGGCAGCCGCGGACGUACAAAAUAAGUACGUCCU [MatMod 14 - Jieux - Same State - Theophylline A] | 0.175 |
| AUUCACCUGUCGGCCGCCACUGCGUUAGCAGUAUCGGGCAGAAACUUCGCAGUGAUGUUGCGACUCAGGACCGGGACGUUGAGGA [theeternabot_exclusion_KL_Trp_B_29] | 0.468 |
| CGCGUAUCGGCAGGAUAUGGAGUUGAGUGAUGUUCAGCAAUGGGUCAUCAUCUUUAUGACAAUCCACCAGAAGGGCCGAUACGCG | 1.1 |
| UUGAGUGAUGUUCAAUUAAUGUGCAACGAUACCAGCUCAUAUGCUAGCCCUUGGCAGCGUGGUAACGUAAUUUUAUCAAAUGAUA [theeternabot_exclusion_KL_Theo_A_39] | 0.198 |
| CUAUGGAAACAUAGUGAUCGGGAAACCGAUACCAGUAUGGAAACAUACCCUUGGCAGCGGAAUGAUCUAACGGAGUGAUGUUCCG [Theophylline A K4 23] | 0.574 |
| GGAGGGAUCUCGGCCGCCACUCGUAAGAAAUGGGCCUCAGGGAUAUAGUGAUGUUAUGUAAAGAAGAGGACCGGGAGAAAGAAGG [ExTryptoB.Dd] | 0.247 |
| UCUGGUAUAUCUGAUACCAGAGUAUAGUAUCAAUUGCAUAUGGAGUGAUGUUCCAUACAACUCCCUUGGCAGCAGAUCUAUCUCU [Same State Theophylline B GF 24] | 0.246 |
| CCGCUACCCUCAGGAUAUUAAAUAUUAGUGAUGUUAAUAAACCGAUGGCGAAAGCCAUCGGUAUGUUGAGAAGGGAGGGUAGCGG [whbob_SS_FMNB__2th196] | 0.767 |

Please list apparent KD of K4 kissing-loop reporter recorded for the sequence UGUACCGAGUUAGGAUAUGUCGUCGAAAGACGAAAUGGAGUGAUGUUCCUUAAACUGCGAAAGCAGACAGAAGGGAUUUGGUACU [FmnBS 29 U11+U77]
0.412

Provide measured apparent KD of K4 kissing-loop reporter value, entry: CAUACGCAUGGAGGAUAUGAGAUUACUCAUAUUAUUUAAUAUUCUCAGUGAUGUUGAGAUAUAAACUCAGAAGGCCAUGUGUAUG [Ex FMN B 1]
0.143

Look up and report measured apparent KD of K4 kissing-loop reporter for this entry: UAAGAGGACCACUGCAAGAGUCCUCGAAUACGAGGACCGGUACGGCCGCCACUCGAUAACUUGUAGUGAUGUUGCAAGUAAGAAU [BrourdMod 1 - Jieux - Same State Tryptophan A]
0.0794

====

# maps each entry to its apparent KD of MS2 coat protein
system: MS2 coat protein; assay: apparent KD of MS2 coat protein; higher = weaker reporter binding; settings: Eterna round: R107; input ligand: theophylline 20 uM
All answers are understood in nM, so give the number only.

| chain | test system | quantity measured | result unit | quantitative result |
| --- | --- | --- | --- | --- |
| AAAAUAAAUAAAACACGUAACAUGAAGGAUACCAGACCGGAAACGGUCCCUUGGCAGCCUCUACAUGAGGAUCACCCAUGUCGUG [Mat - Same State Theophlline A - Mod of Eli - D18] | MS2 coat protein | apparent KD of MS2 coat protein | nM | 141 |
| UAGACGGCCGGAAGGAGCGGUACAUGAGGAUCACCCAUGUAUCCCUGGGCAUCCGUAGUGUGCCAGGUAGGUCGCCGGUUGCGGG [XArg-B21] | MS2 coat protein | apparent KD of MS2 coat protein | nM | 25.2 |
| UGUAACAUGAGGAUCACCCAUGUGAGUGAUACCAGAUUAGUAUUAGUCCCUUGGCAGCACAUUGGGCGAGUGUAUAGUCUAUGCG [Same State - Theophylline A (Freestyle 12)] | MS2 coat protein | apparent KD of MS2 coat protein | nM | 197 |
| AAAAUAAAACGUGCAAAAUCCUAAUGUGAAGGAGCGCACGAAAGUGCAGGUAGGUCGCACAUGAGGAUCACCCAUGUAGCACGAA [MAT - Exclusion Arginine A - Mod of Eli - D1] | MS2 coat protein | apparent KD of MS2 coat protein | nM | 221 |

Query sequence follows.
Tell me apparent KD of MS2 coat protein reported for CCAUGCAGGUCGGCCGCCACUACACACAUGAGGAUCACCCAUGUAGUUACUGGGUGAAGUGGCAGUAGGACCGGGACCUGCAUAU [Brourdmod11]
330

====

system: MS2 coat protein; assay: apparent KD of MS2 coat protein; designed switch direction (-1 OFF switch, 1 ON switch): -1; higher = weaker reporter binding; conditions: Eterna round: R95; input ligand: microRNA oligo, concentration not stated
quantity measured: apparent KD of MS2 coat protein
Put your answer as a value accompanied by its unit after it.

Answer with apparent KD of MS2 coat protein of CCGGAAAUGGAGGAUAUAGGAGUCGAUAGACACCUAGAAGGUCAUACAUGAGGAUCACCCAUGUGUCCUACCGG [Fiskers Ex 6 - 79] (puzzle: Exclusion 6) measured for MS2 coat protein.
12.9 nM

// output apparent KD of MS2 coat protein; input CCCUCACAUGAGGAUCACCCAUGUCAGGAUAUGCGCGGCCAAAAGGGCUGCUAAGGCAGCAGAAGGGACGUGAA [Eninored] (puzzle: Exclusion 1) ; system MS2 coat protein
14.4 nM
